Where a name gives a salt, the structure may show the parent alone.
The following molecules each carry a recorded MIC for Escherichia coli.
parameter: MIC (µg/mL)

[a] CCCCCCCCOC(=O)c1ccc(NC(=N)NC(=N)NCCCCCCNC(=N)NC(=N)Nc2ccc(C(=O)OCCCCCCCC)cc2)cc1 [A = C8 H17 OCO, B = H, dihydrochloride]
[b] CC(C)OC(=O)c1cccc(NC(=N)NC(=N)NCCCCCCNC(=N)NC(=N)Nc2cccc(C(=O)OC(C)C)c2)c1 [A = H, B = (CH3)2 CHOCO, dihydrochloride]
[c] CCCOC(=O)c1ccc(NC(=N)NC(=N)NCCCCCCNC(=N)NC(=N)Nc2ccc(C(=O)OCCC)cc2)cc1 [A = C3 H7 OCO, B = H]
Lookup: Order all 3 entries above by recorded MIC, highest first, lowest last. Please express your ranking as an ordered list of the labels.
Found: a, b, c
(a: 12.5 µg/mL, b: 3.12 µg/mL, c: 1.56 µg/mL)

* * *

The following molecules each carry a recorded MIC for Streptococcus sanguis.
Where a name gives a salt, the structure may show the parent alone.
parameter: MIC (µg/mL)

molecule: COC(=O)c1cccc(NC(=N)NC(=N)NCCCCCCNC(=N)NC(=N)Nc2cccc(C(=O)OC)c2)c1 [A = H, B = CH3 OCO]
system name: Streptococcus sanguis
MIC / µg/mL: 100

[A] COC(=O)c1ccc(NC(=N)NC(=N)NCCCCCCNC(=N)NC(=N)Nc2ccc(C(=O)OC)cc2)cc1 [drawing 6: A = CH3 OCO, B = H]
[B] CCCCCCCCOC(=O)c1ccc(NC(=N)NC(=N)NCCCCCCNC(=N)NC(=N)Nc2ccc(C(=O)OCCCCCCCC)cc2)cc1 [A = C8 H17 OCO, B = H, dihydrochloride]
Lookup: Choose between A and B : whose measured MIC value is numerically larger? Your answer should be the label attached to the chosen record.
Found: A
(A: 50 µg/mL, B: 25 µg/mL)

* * *

Tested on: Escherichia coli
protocol description: test tube serial dilution test (minimal inhibitory concentration), E. coli (Gram negative)
Assay type: cell-based
condition context: Escherichia coli, broth serial dilution, read-out: Minimum Inhibitory Concentration, E. coli
parameter: MIC (µg/mL)

Please review the entries below; each comes with its answer.
compound: N=C(NCCCCCCNC(=N)NC(=N)Nc1ccc(C(=O)O)cc1)NC(=N)Nc1ccc(C(=O)O)cc1 [A = COOH, B = H, reference compound]
unit label: µg/mL
MIC: 100

compound: CCCCCCOC(=O)c1ccc(NC(=N)NC(=N)NCCCCCCNC(=N)NC(=N)Nc2ccc(C(=O)OCCCCCC)cc2)cc1 [A = C6 H13 OCO, B = H]
unit label: µg/mL
MIC: 6.25

compound: CCCCCOC(=O)c1ccc(NC(=N)NC(=N)NCCCCCCNC(=N)NC(=N)Nc2ccc(C(=O)OCCCCC)cc2)cc1 [A = C5 H11 OCO, B = H]
unit label: µg/mL
MIC: 25

compound: CCCCOC(=O)c1ccc(NC(=N)NC(=N)NCCCCCCNC(=N)NC(=N)Nc2ccc(C(=O)OCCCC)cc2)cc1 [drawing 6: A = C4 H9 OCO, B = H]
unit label: µg/mL
MIC: 3.12

[I] CCCCOC(=O)c1cccc(NC(=N)NC(=N)NCCCCCCNC(=N)NC(=N)Nc2cccc(C(=O)OCCCC)c2)c1 [A = H, B = C4 H9 OCO]
[II] CC(C)OC(=O)c1ccc(NC(=N)NC(=N)NCCCCCCNC(=N)NC(=N)Nc2ccc(C(=O)OC(C)C)cc2)cc1 [A = (CH3)2 CHOCO, B = H]
Lookup: # min-compare on MIC between I and II Your answer should be the label attached to the chosen record.
Found: I

* * *

Counter-ions that a name gives are not always drawn.
The following compounds each carry a recorded MIC for Aspergillus niger.
parameter: MIC (µg/mL)

Please review the entries below; each comes with its answer.
compound: CCCOC(=O)c1ccc(NC(=N)NC(=N)NCCCCCCNC(=N)NC(=N)Nc2ccc(C(=O)OCCC)cc2)cc1 [A = C3 H7 OCO, B = H]
MIC, µg/mL: 100
--
compound: CCCCCCCCOC(=O)c1ccc(NC(=N)NC(=N)NCCCCCCNC(=N)NC(=N)Nc2ccc(C(=O)OCCCCCCCC)cc2)cc1 [A = C8 H17 OCO, B = H, dihydrochloride]
MIC, µg/mL: 100
--
compound: CC(C)OC(=O)c1ccc(NC(=N)NC(=N)NCCCCCCNC(=N)NC(=N)Nc2ccc(C(=O)OC(C)C)cc2)cc1 [A = (CH3)2 CHOCO, B = H]
MIC, µg/mL: 50

[P] CC(C)OC(=O)c1cccc(NC(=N)NC(=N)NCCCCCCNC(=N)NC(=N)Nc2cccc(C(=O)OC(C)C)c2)c1 [A = H, B = (CH3)2 CHOCO, dihydrochloride]
[Q] COC(=O)c1ccc(NC(=N)NC(=N)NCCCCCCNC(=N)NC(=N)Nc2ccc(C(=O)OC)cc2)cc1 [drawing 6: A = CH3 OCO, B = H]
Lookup: Choose between P and Q : whose measured MIC value is numerically larger? Your answer should be the label attached to the chosen record.
Found: Q
(Q: 100 µg/mL, P: 50 µg/mL)

* * *

Counter-ions that a name gives are not always drawn.
The following compounds each carry a recorded MIC for Streptococcus sanguis.
parameter: MIC (µg/mL)

compound: CCOC(=O)c1ccc(NC(=N)NC(=N)NCCCCCCNC(=N)NC(=N)Nc2ccc(C(=O)OCC)cc2)cc1 [A = C2 H5 OCO, B = H, dihydrochloride]
reading: 25

compound: CCCCCCOC(=O)c1ccc(NC(=N)NC(=N)NCCCCCCNC(=N)NC(=N)Nc2ccc(C(=O)OCCCCCC)cc2)cc1
reading: 0.39

compound: CCCCOC(=O)c1cccc(NC(=N)NC(=N)NCCCCCCNC(=N)NC(=N)Nc2cccc(C(=O)OCCCC)c2)c1
reading: 1.56

compound: CCCOC(=O)c1ccc(NC(=N)NC(=N)NCCCCCCNC(=N)NC(=N)Nc2ccc(C(=O)OCCC)cc2)cc1
reading: 3.12

[A] CCCCOC(=O)c1ccc(NC(=N)NC(=N)NCCCCCCNC(=N)NC(=N)Nc2ccc(C(=O)OCCCC)cc2)cc1 [drawing 6: A = C4 H9 OCO, B = H]
[B] CCCCCOC(=O)c1ccc(NC(=N)NC(=N)NCCCCCCNC(=N)NC(=N)Nc2ccc(C(=O)OCCCCC)cc2)cc1
Lookup: Choose between A and B : whose measured MIC value is numerically larger? Your answer should be the label attached to the chosen record.
Found: A

* * *

System: Aspergillus niger
protocol description: test tube serial dilution test (minimal inhibitory concentration), A. niger (mold)
Format: cell-based
condition context: Aspergillus niger, broth serial dilution, read-out: Minimum Inhibitory Concentration, A. niger
Structures can show the parent of a compound that is named as a salt.
parameter: MIC (µg/mL)

compound: CCOC(=O)c1ccc(NC(=N)NC(=N)NCCCCCCNC(=N)NC(=N)Nc2ccc(C(=O)OCC)cc2)cc1 [A = C2 H5 OCO, B = H, dihydrochloride]
reading: 100
//
compound: N=C(NCCCCCCNC(=N)NC(=N)Nc1ccc(Cl)cc1)NC(=N)Nc1ccc(Cl)cc1 [Chlorhexidine, reference compound]
reading: 25
//
compound: CCCCOC(=O)c1ccc(NC(=N)NC(=N)NCCCCCCNC(=N)NC(=N)Nc2ccc(C(=O)OCCCC)cc2)cc1 [drawing 6: A = C4 H9 OCO, B = H]
reading: 100
//
compound: CCCCCCOC(=O)c1ccc(NC(=N)NC(=N)NCCCCCCNC(=N)NC(=N)Nc2ccc(C(=O)OCCCCCC)cc2)cc1
reading: 100

* * *

Where a name gives a salt, the structure may show the parent alone.
The following molecules each carry a recorded MIC for Streptococcus sanguis.
parameter: MIC (µg/mL)

molecule: CC(C)OC(=O)c1ccc(NC(=N)NC(=N)NCCCCCCNC(=N)NC(=N)Nc2ccc(C(=O)OC(C)C)cc2)cc1
MIC, µg/mL: 6.25

[P] CC(C)OC(=O)c1cccc(NC(=N)NC(=N)NCCCCCCNC(=N)NC(=N)Nc2cccc(C(=O)OC(C)C)c2)c1 [A = H, B = (CH3)2 CHOCO, dihydrochloride]
[Q] N=C(NCCCCCCNC(=N)NC(=N)Nc1ccc(C(=O)O)cc1)NC(=N)Nc1ccc(C(=O)O)cc1 [A = COOH, B = H, reference compound]
Lookup: Choose between P and Q : whose measured MIC value is numerically larger? Your answer should be the label attached to the chosen record.
Found: Q

* * *

Tested on: Aspergillus niger
parameter: MIC (µg/mL)

compound: N=C(NCCCCCCNC(=N)NC(=N)Nc1ccc(C(=O)O)cc1)NC(=N)Nc1ccc(C(=O)O)cc1 [A = COOH, B = H, reference compound]
reading: 100

[a] COC(=O)c1cccc(NC(=N)NC(=N)NCCCCCCNC(=N)NC(=N)Nc2cccc(C(=O)OC)c2)c1
[b] CCCCOC(=O)c1cccc(NC(=N)NC(=N)NCCCCCCNC(=N)NC(=N)Nc2cccc(C(=O)OCCCC)c2)c1
Lookup: Choose between a and b : whose measured MIC value is numerically larger? Your answer should be the label attached to the chosen record.
Found: a
(a: 100 µg/mL, b: 50 µg/mL)
